Tested on: RAW264.7
measurement-notes: Cytotoxicity against mouse RAW264.7 cells assessed as cell death measured after 18 to 24 hrs by MTT assay
Type: functional
settings: time 18-24 hrs
Give measured IC10 for each item. Keep answers brief.
Report as: number unit

1. CCCCCCCCCC(=O)NCCCC[C@H](N)C(=O)NCC(=O)NCC(=O)NCC(=O)N[C@H](CCCNC(=N)N)C(=O)N[C@@H](CCCNC(=N)N)C(=O)N[C@@H](CCCNC(=N)N)C(=O)N1CCC[C@H]1C(=O)N[C@@H](CS)C(=O)O :: 256 µM
2. CCCCCCCC(=O)NCCCC[C@H](N)C(=O)NCC(=O)NCC(=O)NCC(=O)N[C@H](CCCNC(=N)N)C(=O)N[C@@H](CCCNC(=N)N)C(=O)N[C@@H](CCCNC(=N)N)C(=O)N1CCC[C@H]1C(=O)N[C@@H](CS)C(=O)O :: 256 µM
3. CCCCCCCCCCCC(=O)NCCCC[C@H](NC(=O)[C@@H](N)CSSC[C@H](N)C(=O)N[C@@H](CCCCNC(=O)CCCCCCCCCCC)C(=O)NCC(=O)NCC(=O)NCC(=O)N[C@H](CCCNC(=N)N)C(=O)N[C@@H](CCCNC(=N)N)C(=O)N[C@@H](CCCNC(=N)N)C(=O)N1CCC[C@H]1C(=O)O)C(=O)NCC(=O)NCC(=O)NCC(=O)N[C@H](CCCNC(=N)N)C(=O)N[C@@H](CCCNC(=N)N)C(=O)N[C@@H](CCCNC(=N)N)C(=O)N1CCC[C@H]1C(=O)O :: 128 µM

Next compound, please.
Give the measured IC10 of CCCCCCCC(=O)NCCCC[C@H](NC(=O)[C@@H](N)CS)C(=O)NCC(=O)NCC(=O)NCC(=O)N[C@H](CCCNC(=N)N)C(=O)N[C@@H](CCCNC(=N)N)C(=O)N[C@@H](CCCNC(=N)N)C(=O)N1CCC[C@H]1C(=O)O .
256 µM

* * *

Tested on: Escherichia coli
measurement-notes: Antimicrobial activity against Escherichia coli K99 assessed as increase in absorbance incubated for 20 to 22 hrs
Format: functional
settings: time 20-22 hrs
Give measured log10 MIC for each item. Keep answers brief.
Parameter value (number): base-10 log of MIC in µM.

Parameter requested: log10 MIC. Apply to each item below.
1. CCCCCCCCCCCC(=O)NCCCC[C@H](NC(=O)[C@@H](N)CS)C(=O)NCC(=O)NCC(=O)NCC(=O)N[C@H](CCCNC(=N)N)C(=O)N[C@@H](CCCNC(=N)N)C(=O)N[C@@H](CCCNC(=N)N)C(=O)N1CCC[C@H]1C(=O)O
2. CCCCCCCC(=O)NCCCC[C@H](N)C(=O)NCC(=O)NCC(=O)NCC(=O)N[C@H](CCCNC(=N)N)C(=O)N[C@@H](CCCNC(=N)N)C(=O)N[C@@H](CCCNC(=N)N)C(=O)N1CCC[C@H]1C(=O)N[C@@H](CS)C(=O)O
3. CCCCCCCCCC(=O)NCCCC[C@H](NC(=O)[C@@H](N)CSSC[C@H](N)C(=O)N[C@@H](CCCCNC(=O)CCCCCCCCC)C(=O)NCC(=O)NCC(=O)NCC(=O)N[C@H](CCCNC(=N)N)C(=O)N[C@@H](CCCNC(=N)N)C(=O)N[C@@H](CCCNC(=N)N)C(=O)N1CCC[C@H]1C(=O)O)C(=O)NCC(=O)NCC(=O)NCC(=O)N[C@H](CCCNC(=N)N)C(=O)N[C@@H](CCCNC(=N)N)C(=O)N[C@@H](CCCNC(=N)N)C(=O)N1CCC[C@H]1C(=O)O
4. CCCCCCCCCC(=O)NCCCC[C@H](N)C(=O)NCC(=O)NCC(=O)NCC(=O)N[C@H](CCCNC(=N)N)C(=O)N[C@@H](CCCNC(=N)N)C(=O)N[C@@H](CCCNC(=N)N)C(=O)N1CCC[C@H]1C(=O)N[C@@H](CS)C(=O)O
5. CCCCCCCCCC(=O)NCCCC[C@H](N)C(=O)NCC(=O)NCC(=O)NCC(=O)N[C@H](CCCNC(=N)N)C(=O)N[C@@H](CCCNC(=N)N)C(=O)N[C@@H](CCCNC(=N)N)C(=O)N1CCC[C@H]1C(=O)N[C@@H](CSSC[C@H](NC(=O)[C@@H]1CCCN1C(=O)[C@H](CCCNC(=N)N)NC(=O)[C@H](CCCNC(=N)N)NC(=O)[C@@H](CCCNC(=N)N)NC(=O)CNC(=O)CNC(=O)CNC(=O)[C@@H](N)CCCCNC(=O)CCCCCCCCC)C(=O)O)C(=O)O

1.81
1.51
0.90
1.20
0.60

Parameter requested: log10 MIC. Apply to each item below.
1. CCCCCCCC(=O)NCCCC[C@H](NC(=O)[C@@H](N)CSSC[C@H](N)C(=O)N[C@@H](CCCCNC(=O)CCCCCCC)C(=O)NCC(=O)NCC(=O)NCC(=O)N[C@H](CCCNC(=N)N)C(=O)N[C@@H](CCCNC(=N)N)C(=O)N[C@@H](CCCNC(=N)N)C(=O)N1CCC[C@H]1C(=O)O)C(=O)NCC(=O)NCC(=O)NCC(=O)N[C@H](CCCNC(=N)N)C(=O)N[C@@H](CCCNC(=N)N)C(=O)N[C@@H](CCCNC(=N)N)C(=O)N1CCC[C@H]1C(=O)O
2. CCCCCCCCCC(=O)NCCCC[C@H](NC(=O)[C@@H](N)CS)C(=O)NCC(=O)NCC(=O)NCC(=O)N[C@H](CCCNC(=N)N)C(=O)N[C@@H](CCCNC(=N)N)C(=O)N[C@@H](CCCNC(=N)N)C(=O)N1CCC[C@H]1C(=O)O

[0.90, 1.51]
